The reader will find GI50 measurements below, all made with U251 CNS.
MEASURED PROPERTY: GI50

| MOLECULE | TESTED TARGET | DATA VALUE |
| --- | --- | --- |
| CCC1(CC)C(=O)[N-]C(=O)[N-]C1=O.[Au+].[Au+].c1ccc([PH+](c2ccccc2)c2ccccc2)cc1.c1ccc([PH+](c2ccccc2)c2ccccc2)cc1 | U251 CNS | 1.16 µM |
| CC1(C)N=C(N)N=C(N)N1c1ccc(OCCCCNC(=O)c2ccc(S(=O)(=O)F)cc2)c(Cl)c1 | U251 CNS | 5.65 µM |
| CCC1OC(/C(C)=C/C(C)/C=C/C2C(C)C2/C=C/C2OC(CC(=O)O)CC(O)C2O)CC=C1C (stereo not given) | U251 CNS | > 50 µM |
| N=C1C(c2nc(-c3ccc(Br)cc3)cs2)=C(O)CN1CC1CCCO1 (stereo not given) | U251 CNS | > 100 µM |
| NC1CCCCC1N.O=S(=O)([O-])CCCN1CCN(CCO)CC1.O=S(=O)([O-])CCCN1CCN(CCO)CC1.[Pt+4] | U251 CNS | 14.9 µM |
